- tested.on: T1, recombinant mouse TfR-1, His-tagged (Sino Biological 50741-M07H) (mouse, UniProt Q62351 89-763)
- T1 construct: bought; His-tagged; also called mTfR1; mTfR-1
- assay.info: SPR, His-captured TfR1
# reported Kd; entries follow
Numbers only; they are read as nM.

Look over these answered cases.
binder	Kd [nM]
Clone C variant 4 VNAR-hFc (Fc fusion, not shown: a dimerising Fc or GST) ARVDQTPQTITKETGESLTINCVLRDSNCALSSTYWYRKKSGSTNEENISKGGRYVETVNSGSKSFSLRINDLTVEDSGTYRCNVVQRPSYNNYFWCDVYGDGTAVTVN	2.34
Clone C variant 14 VNAR-hFc (Fc fusion, not shown: a dimerising Fc or GST) ARVDQTPQTITKETGESLTINCVLRDSNCALSSTYWYRKKSGSTNEENISKGGRYVETVNSGSKSFSLRINDLTVEDSGTYRCNVVQYPQQDRPFWCDVYGDGTAVTVN	6.69
Clone C variant 13 VNAR-hFc (Fc fusion, not shown: a dimerising Fc or GST, also called Clone C v13; Clone C var; 13) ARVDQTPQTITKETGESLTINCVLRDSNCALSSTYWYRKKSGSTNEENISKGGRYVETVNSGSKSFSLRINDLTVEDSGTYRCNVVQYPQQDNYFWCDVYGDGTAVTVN	0.165

Query string: Looking for the measured Kd of Clone C variant 11 VNAR-hFc (Fc fusion, not shown: a dimerising Fc or GST) ARVDQTPQTITKETGESLTINCVLRDSNCALSSTYWYRKKSGSTNEENISKGGRYVETVNSGSKSFSLRINDLTVEDSGTYRCNVVQYPHYNNYFWCDVYGDGTAVTVN , can you help?
Result string: 0.291

// provenance: patent US20210403591A1
